Kindly find below IC50 information for NAD-dependent protein deacetylase sirtuin-3, mitochondrial (Homo sapiens, UniProt Q9NTG7) taken from the literature.

Worked examples follow.
- COMPOUND: "COC(=O)c1ccc(CN2CC(C(N)=O)Oc3ccccc32)cc1 (stereo unspecified)"
  IC50: "> 60 µM"
- COMPOUND: "COC(=O)c1ccccc1CN1CC(C(N)=O)Oc2ccccc21 (stereo unspecified)"
  IC50: "> 60 µM"
- COMPOUND: "O=C(O)C1CN(Cc2ccccc2)c2ccccc2O1 (stereo unspecified)"
  IC50: "> 60 µM"
- COMPOUND: "NC(=O)C1CN(Cc2cccc([N+](=O)[O-])c2)c2ccccc2O1 (stereo unspecified)"
  IC50: "> 60 µM"

Prompt line: Return the recorded IC50 value; entry: `CCOC(=O)CC(=O)NCCCC[C@H](NC(=O)OCc1ccccc1)C(=O)Nc1ccccc1`
Response line: > 300 µM

Prompt line: Return the recorded IC50 value; entry: `CC(=O)NCCCC[C@H](NC(=O)[C@H](CCCCNC(N)=S)NC(=O)[C@H](CCCCNC(C)=O)NC(C)=O)C(N)=O`
Response line: 5.4 µM

Prompt line: Return the recorded IC50 value; entry: `CCCCCCCCCCCCCC(=S)NCCCC[C@H](NC(=O)OCc1ccccc1)C(=O)Nc1ccccc1`
Response line: > 200 µM

Prompt line: Return the recorded IC50 value; entry: NC(=O)C1CN(Cc2ccc3c(c2)OCO3)c2ccccc2O1 (stereo unspecified)
Response line: > 60 µM

Prompt line: Return the recorded IC50 value; entry: NC(=O)C1CN(Cc2cn(Cc3ccccc3)nn2)c2ccccc2O1 (stereo unspecified)
Response line: > 60 µM

Prompt line: Return the recorded IC50 value; entry: NC(=O)C1CN(Cc2ccccc2F)c2ccccc2O1 (stereo unspecified)
Response line: > 60 µM

Prompt line: Return the recorded IC50 value; entry: CC(C)(C)OC(=O)CN1CC(C(N)=O)Oc2ccccc21 (stereo unspecified)
Response line: > 60 µM
